Origin of the recorded values: patent US11802128B2

Here the recorded EC50 is given for each entry.
- Test system: MDA-MB-436 (mutated BRCA1) cells
- Procedure summary: Cell growth inhibition assay (CellTiter-Glo cell viability, 7 days)
- Format: cell-based
- Measurement context: Homo sapiens, 168 h, MDA-MB-436, 7 days
Property name: EC50 (nM)

INSERT INTO results (compound, comparative_sign, recorded_value) VALUES
  ('CCc1cc2ncc(CN3CC[C@@H](Oc4ccc(C(=O)NC5CC5)nc4)C3)cc2[nH]c1=O [Example 4]', '=', 1.1),
  ('CCc1cc2ncc(CN3C[C@H](Oc4ccc(C(=O)NC5COC5)nc4)[C@H]3C)cc2[nH]c1=O [Example 44]', '=', 1.3),
  ('CCc1cc2ncc(CN3C[C@H](Oc4ccc(C(=O)NC)nc4)[C@@H]3C)cc2[nH]c1=O [Example 20]', '=', 35),
  ('CNC(=O)c1ccc2c(ccn2[C@H]2CN(Cc3ccc4nc(C)c(=O)[nH]c4c3F)[C@@H]2C)n1 [Example 96]', '>', 1000),
  ('Cc1cc2ncc([C@H](C)N3C[C@H](Oc4ccc(C#N)nc4)[C@H]3C)cc2[nH]c1=O (single isomer, unassigned) [Example 61]', '=', 8.8),
  ('CNC(=O)c1ccc(O[C@H]2CN(Cc3ccc4cc(Cl)c(=O)[nH]c4c3F)[C@@H]2C)cn1 [Example 106]', '=', 5),
  ('CCc1cc2ncc(CN3CC[C@@H](Oc4ccc(C(=O)NC)nc4)C3)cc2[nH]c1=O [Example 2]', '=', 1.6),
  ('CCc1cc2ncc(CN3C[C@H](Oc4ccc(C#N)c(F)c4)[C@H]3C)cc2[nH]c1=O [Example 68]', '=', 18),
  ('CCc1cc2ncc(CN3C[C@H](Oc4ccc(C(=O)NC)cc4)[C@H]3C)cc2[nH]c1=O [Example 64]', '=', 43),
  ('CCc1cc2ncc(CN3C[C@@H](F)[C@H](Oc4ccc(C(=O)NC)nc4)C3)cc2[nH]c1=O [Example 5]', '>', 1000),
  ('CCc1cc2ncc(CN3C[C@H](Oc4ccc(C(=O)NC)nc4)[C@@H](F)C3)cc2[nH]c1=O [Example 6]', '=', 42),
  ('CCc1nc2cc(F)c(CN3CC(Oc4ccc(C(=O)NC)nc4)C3)cc2[nH]c1=O [Example 30]', '=', 47),
  ('CCc1cn2nc(CN3C[C@H](Oc4ccc(C(=O)NC)nc4)[C@H]3C)cc2[nH]c1=O [Example 46]', '=', 100),
  ('[2H]C([2H])([2H])NC(=O)c1ccc(O[C@H]2CN(Cc3cnc4cc(CC)c(=O)[nH]c4c3)[C@@H]2C)cn1 [Example 39]', '=', 1.1),
  ('Cc1cc2ncc([C@@H](C)N3C[C@H](Oc4ccc(C#N)nc4)[C@H]3C)cc2[nH]c1=O (single isomer, unassigned) [Example 60]', '>', 1000),
  ('C[C@@H]1[C@@H](Oc2ccc(C(=O)NC3CC3)nc2)CN1Cc1cnc2cc(Cl)c(=O)[nH]c2c1 [Example 76]', '=', 1.1),
  ('CCc1cc2ncc(CN3C[C@@H](Oc4ccc(C(=O)NC)nc4)[C@@H]3C)cc2[nH]c1=O [Example 18]', '>', 1000),
  ('Cc1cc2ncc(CN3C[C@H](Oc4ccc(C(=O)NC5CC5)nc4)[C@H]3C)cc2[nH]c1=O [Example 53]', '=', 1.3),
  ('CCc1cc2ncc(CN3CC[C@@H](Oc4ccc(C(=O)NC)nc4C#N)C3)cc2[nH]c1=O [Example 28]', '=', 3.3),
  ('Cc1cc2ncc(CN3C[C@H](Oc4ccc(C(=O)N[C@@H]5CC5(F)F)nc4)[C@H]3C)cc2[nH]c1=O (single isomer, unassigned) [Example 90]', '=', 1.8),
  ('CNC(=O)c1ccc(O[C@H]2CN(Cc3ccc4nc(C)c(=O)[nH]c4c3F)[C@@H]2C)cn1 [Example 91]', '=', 27),
  ('CCc1cc2ncc(CN3CC[C@H](Oc4ccc(C(=O)NC)nc4)C3)cc2[nH]c1=O [Example 1]', '>', 1000),
  ('CNC(=O)c1ccc(O[C@H]2CN(Cc3cnc4cc(C)c(=O)[nH]c4c3)[C@@H]2C)cn1 [Example 50]', '=', 8.7),
  ('Cc1cc2ncc(CN3C[C@H](Oc4ccc(F)nc4)[C@H]3C)cc2[nH]c1=O [Example 62]', '=', 140),
  ('CCc1cc2ncc(CN3CC(Oc4ccc(C(=O)NC5CC5)nc4)C3)cc2[nH]c1=O [Example 21]', '=', 1.2),
  ('CCNC(=O)c1ccc(OC2CN(Cc3cnc4cc(CC)c(=O)[nH]c4c3)C2)cn1 [Example 58]', '=', 1.7),
  ('CCc1cc2ncc(CN3C[C@H](Oc4ccc(C#N)nc4)[C@H]3C)cc2[nH]c1=O [Example 36]', '=', 3.7),
  ('CCc1cc2ncc(CN3C[C@@H](Oc4ccc(C(=O)NC)nc4)[C@H]3C)cc2[nH]c1=O [Example 19]', '>', 1000),
  ('CNC(=O)c1ccc(O[C@H]2CN(Cc3cnc4cc(Cl)c(=O)[nH]c4c3)[C@@H]2C)cn1 [Example 77]', '=', 1.8),
  ('O=C(NC1CC1)c1ccc(OC2CN(Cc3cnc4cc(C5CC5)c(=O)[nH]c4c3)C2)cn1 [Example 73]', '=', 2.1);

###

compounds and their reported pIC50
- Assayed system: PARP2 (Homo sapiens (Human), UniProt Q9UGN5)
- Sequence (Q9UGN5 whole entry): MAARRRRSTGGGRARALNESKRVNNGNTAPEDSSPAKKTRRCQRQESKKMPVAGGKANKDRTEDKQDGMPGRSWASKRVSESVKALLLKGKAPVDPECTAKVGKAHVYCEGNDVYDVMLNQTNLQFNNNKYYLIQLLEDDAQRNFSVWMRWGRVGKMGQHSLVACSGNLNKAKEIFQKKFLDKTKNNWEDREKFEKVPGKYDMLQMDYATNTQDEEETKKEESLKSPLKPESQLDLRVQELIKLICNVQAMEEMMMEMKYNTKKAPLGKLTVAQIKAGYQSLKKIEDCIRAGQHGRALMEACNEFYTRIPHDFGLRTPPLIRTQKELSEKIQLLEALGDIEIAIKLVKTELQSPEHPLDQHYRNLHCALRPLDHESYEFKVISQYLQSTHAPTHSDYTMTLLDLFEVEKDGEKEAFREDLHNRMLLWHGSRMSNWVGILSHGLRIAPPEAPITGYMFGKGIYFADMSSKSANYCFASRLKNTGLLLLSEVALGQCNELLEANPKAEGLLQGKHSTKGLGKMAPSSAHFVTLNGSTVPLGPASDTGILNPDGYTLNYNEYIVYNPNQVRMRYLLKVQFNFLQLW
- Procedure summary: Biochemical fluorescent polarization (FP) assay, displacement of PARPi-FL
- Format: binding
- Measurement context: 20 nM protein, 3 nM PARPi-FL, 4 h at room temperature; read-out: IC50 FP PARP2
pIC50: −log10 of the molar value.
Property name: pIC50

INSERT INTO assay_data (chemical_smiles, recorded_value) VALUES
  ('CNC(=O)c1ccc(O[C@@H]2CCN(Cc3cnc4cc(C5CC5)c(=O)[nH]c4c3)C2)cn1', '< 4.00'),
  ('CCc1cc2ncc(CN3CC[C@@H](Oc4ccc(C(=O)NC)nc4)C3)cc2[nH]c1=O', '< 5.00'),
  ('CNC(=O)c1ccc(O[C@@H]2CCN(Cc3cnc4c(c3)[nH]c(=O)c3ccoc34)C2)cn1', '< 4.00'),
  ('CCc1cc2ncc(CN3C[C@H](Oc4ccc(C(=O)NC5COC5)nc4)[C@H]3C)cc2[nH]c1=O', 4.96),
  ('CNC(=O)c1ccc(O[C@H]2CN(Cc3cnc4cc(Cl)c(=O)[nH]c4c3)[C@@H]2C)cn1', '< 4.00'),
  ('CNC(=O)c1ncc(O[C@H]2CN(Cc3cnc4cc(C)c(=O)[nH]c4c3)[C@@H]2C)cc1F', 4.12),
  ('CCc1nc2cc(F)c(CN3C[C@H](Oc4ccc(C(=O)NC)nc4)[C@H]3C)cc2[nH]c1=O', '< 4.00'),
  ('Cc1cc2ncc(CN3C[C@H](Oc4ccc(F)nc4)[C@H]3C)cc2[nH]c1=O', 4.28),
  ('CNC(=O)c1ccc(O[C@H]2CN(Cc3ccc4nc(C)c(=O)[nH]c4c3F)[C@@H]2C)cn1', '< 4.00'),
  ('CCc1cc2ncc(CN3CC[C@@H](n4ccc5nc(C(=O)NC)ccc54)C3)cc2[nH]c1=O', '< 4.00');

###

- Tested on: MDA-MB-436 (mutated BRCA1) cells
- Procedure summary: Cell growth inhibition assay (CellTiter-Glo cell viability, 7 days)
- Type: cell-based
- Measurement context: Homo sapiens, 168 h, MDA-MB-436, 7 days
pEC50: −log10 of the molar value.
Property name: pEC50

INSERT INTO assay_data (compound, property_name, recorded_value) VALUES
  ('CNC(=O)c1ccc(O[C@H]2CN(Cc3ccc4nc(C)c(=O)[nH]c4c3F)[C@@H]2C)c(F)n1 [Example 98]', 'pEC50', 7.54),
  ('CCc1nc2cc(F)c(CN3CC[C@@H](Oc4ccc(C(=O)NC)nc4)C3)cc2[nH]c1=O [Example 32]', 'pEC50', 7.80),
  ('CNC(=O)c1ccc(O[C@H]2CN(Cc3ccc4c5c(c(=O)[nH]c4c3F)CCO5)[C@@H]2C)cn1 [Example 115]', 'pEC50', 6.77),
  ('CNC(=O)c1ccc(O[C@H]2CN(Cc3ccc4nc(C5CC5)c(=O)[nH]c4c3F)[C@@H]2C)cn1 [Example 97]', 'pEC50', 7.68),
  ('CNC(=O)c1ccc(O[C@H]2CN(Cc3cnc4cc(C5CC5)c(=O)[nH]c4c3)[C@@H]2C)cn1 [Example 41]', 'pEC50', 8.52),
  ('CCc1nc2ccc(CN3C[C@H](Oc4ccc(C(=O)NC)nc4F)[C@H]3C)c(F)c2[nH]c1=O [Example 100]', 'pEC50', 8.23),
  ('CCc1cc2ncc(CN3C[C@H](n4ccc5nc(C(=O)NC6CC6)ccc54)[C@H]3C)cc2[nH]c1=O [Example 86]', 'pEC50', 8.74),
  ('CCc1cc2ncc(CN3C[C@H](Oc4ccc(C(=O)NC5CC5)nc4)[C@H]3C)cc2[nH]c1=O [Example 43]', 'pEC50', 9.34),
  ('CCc1cc2ncc(CN3C[C@H](Oc4cnc(C(=O)NC5CC5)c(F)c4)[C@H]3C)cc2[nH]c1=O [Example 66]', 'pEC50', 9.00),
  ('CCc1nc2cc(F)c(CN3C[C@H](Oc4ccc(C(=O)NC)nc4)[C@H]3C)cc2[nH]c1=O [Example 59]', 'pEC50', 8.33),
  ('CNC(=O)c1ccc(O[C@H]2CN(Cc3cnc4cc(C(F)F)c(=O)[nH]c4c3)[C@@H]2C)cn1 [Example 70]', 'pEC50', 8.96),
  ('Cc1cc2ncc(CN3C[C@H](Oc4ccc(C(=O)NC5CC(F)(F)C5)nc4)[C@H]3C)cc2[nH]c1=O [Example 80]', 'pEC50', 8.74),
  ('CNC(=O)c1ncc(O[C@H]2CN(Cc3cnc4cc(C)c(=O)[nH]c4c3)[C@@H]2C)cc1F [Example 52]', 'pEC50', 8.01),
  ('CCc1cc2ncc(CN3C[C@H](Oc4ccc(C(=O)NC5CC5)nc4C#N)[C@H]3C)cc2[nH]c1=O [Example 79]', 'pEC50', 8.72),
  ('CCc1cc2ncc(CN3C[C@H](Oc4cnc(C(=O)NC)c(F)c4)[C@H]3C)cc2[nH]c1=O [Example 38]', 'pEC50', 8.64),
  ('CCc1cc2ncc(CN3C[C@H](Oc4ccc(C(=O)NC5CC5)nc4F)[C@H]3C)cc2[nH]c1=O [Example 104]', 'pEC50', 9.07),
  ('CNC(=O)c1ccc2c(ccn2[C@H]2CN(Cc3ccc4[nH]c(=O)c(C5CC5)cc4n3)[C@@H]2C)n1 [Example 87]', 'pEC50', 7.92),
  ('CCc1cc2ccc(CN3CC(Oc4ccc(C(=O)NC5CC5)nc4)C3)c(F)c2[nH]c1=O [Example 118]', 'pEC50', 7.66),
  ('CCc1cc2ncc(CN3CC[C@@H](Oc4ccc(C#N)cn4)C3)cc2[nH]c1=O [Example 29]', 'pEC50', 6.85),
  ('CCc1cc2ncc(CN3CC[C@@H](n4ccc5nc(C(=O)NC)ccc54)C3)cc2[nH]c1=O [Example 49]', 'pEC50', 8.02),
  ('Cc1cc2ncc(CN3CC[C@@H](Oc4ccc(C(=O)NC5CC5)nc4)C3)cc2[nH]c1=O [Example 7]', 'pEC50', 8.08);
